experiment: Clearance in ICR mouse at 1 mg/kg, iv single administration measured for 24 hrs post treatment by LC-MS/MS analysis; assay type: ADME, organism-based; details: in vivo
measurement.name: clearance (mL/min/kg)
All answers are understood in mL/min/kg, so give the number only.

Query: If you can, please state the reported clearance value of C=C(c1cc(OC)c(OC)c(OC)c1)c1ccc(OC)c(O)c1NC(=O)CO .
Reply: 47.6

----------
test system: HeLa; assay: Antiproliferative activity against human HeLa cells assessed as cell viability incubated for 48 hrs by MTT assay; format: functional, cell-based
measurement.name: log10(IC50) (log10 of the value in nM)
Hi team, quick reminder: these entries are log10 of IC50 (nM).

These solved cases illustrate the format of a correct answer.
1. C=C(c1ccc(OC)cc1NC(=O)CNCC)c1ccc(OC)c2c1OC(C)(C)C=C2	3.04
2. C=C(c1ccc2c(c1)C=CC(C)(C)O2)c1ccc(OC)cc1NC(=O)CNC	2.61
3. CNCC(=O)Nc1cc(OC)ccc1C(=O)c1ccc(OC)c2c1C=CC(C)(C)O2	3.34
4. COc1ccc(C(=O)c2ccc(OC)c3c2OC(C)(C)C=C3)c(NC(=O)CN(C)C)c1	3.02

Query: If you can, please state the reported log10(IC50) value of C=C(c1cc(OC)c(OC)c(OC)c1)c1ccc(OC)cc1NC(=O)CO .
Reply: 1.48

Query: If you can, please state the reported log10(IC50) value of CCNCC(=O)Nc1cc(OC)ccc1C(=O)c1ccc2c(c1)C=CC(C)(C)O2 .
Reply: 3.49

Query: If you can, please state the reported log10(IC50) value of C=C(c1ccc(OC)cc1NC(=O)CNC)c1ccc(OC)c2c1C=CC(C)(C)O2 .
Reply: 2.70

Query: If you can, please state the reported log10(IC50) value of C=C(c1ccc(OC)cc1NC(=O)CO)c1ccc(OC)c2c1OC(C)(C)C=C2 .
Reply: 1.60
